Tested on: T-47D breast
test_summary: NCI-60 one-dose screen, 48 h (100 = growth as untreated, 0 = no growth, -100 = all killed)
assay_conditions: 10 µM unless noted
The panel holds about 83,000 compounds, 20% with a hit somewhere; the sample as a whole holds those more often.
If the reported growth equals or exceeds 60%, assign 1. If not, assign -1.

# molecule, category
data = [
    ("Cc1cc(N(CCCl)CCCl)ccc1C=Nc1ccc(-c2csc(Cc3ccccc3)n2)cc1", -1),
]

Prompt line: Is reported growth greater than or equal to 60% here: "CC1(C)[C@H](O)[C@H](F)C[C@@]2(C)Oc3ccc(C(=O)Nc4ccc5c(c4)NC(=O)C54CCN(CCCCC#N)CC4)cc3C[C@H]12"
Response line: -1

Prompt line: Determine whether measured growth meets or exceeds 60% for CCN(CCO)C(Cc1ccccc1)c1ccccc1 (stereo unspecified)
Response line: 1

Prompt line: In plain terms: is recorded growth at least 60% for "Cc1cc(N(CCCl)CCCl)ccc1C=Nc1ccccc1-c1ccccc1" ?
Response line: -1
